PROPERTY NAME: melting point

Here are 3 compounds together with their reported answers.
Value of measured melting point for the entry OCCCc1cnoc1-c1ccc(C(F)(F)F)cc1 : 85 to 86 °C

Lab note: Cc1onc(-c2ccc(Cl)cc2)c1CCC(=O)O gave melting point of 187 to 188 °C

// recorded melting point for CCc1onc(-c2ccc(Cl)cc2)c1CCC(=O)O : 164 to 165 °C

Kindly review the next compound as well.
Record summary for COc1ccc(-c2oncc2CCC(=O)O)cc1OC : reported melting point = 169 to 170 °C

* * *

Listed here: items and their measured melting point.

Examples from the recorded data:
Lab note: O=C(O)CCc1cnoc1-c1ccc2c(c1)OCO2 gave melting point of 150 to 151 °C

Quick note, melting point for O=C(O)CCc1cnoc1-c1ccc(F)cc1F landed at 125 to 126 °C

Documented melting point of O=C(O)CCc1cnoc1-c1cccc(Cl)c1 : 110 to 111 °C

According to the records, this compound CS(=O)(=O)c1ccc(-c2oncc2CCCO)cc1 displays melting point of 125 to 126 °C

get_value(item= COC(=O)CCc1cnoc1-c1ccc(F)cc1F , readout=melting point) returns 40 to 41 °C

The compound listed as O=C(O)CCc1cnoc1-c1ccc(F)c(F)c1 shows melting point equal to 102 to 103 °C

Short answer for COC(=O)CCc1cnoc1-c1ccc(Cl)s1 : melting point was 34 to 35 °C

The compound O=C(O)CCc1cnoc1-c1ccc(F)c(Cl)c1 showed melting point equal to 118 to 119 °C

***
# melting point (compound: O=C(O)CCc1cnoc1-c1ccc(Cl)c(Br)c1 ) is 177 to 180 °C

Reported melting point for COC(=O)CCc1cnoc1-c1ccc(C(F)(F)F)cc1 was 68 to 69 °C

So for NC(=O)CCc1cnoc1-c1ccccc1 [Example 22, 3-(5-phenyl-4-isoxazolyl)propionamide] , the logged melting point turned out to be 151 to 152 °C

get_value(item= Cc1cc(-c2oncc2CCC(=O)O)ccc1Cl , readout=melting point) returns 158 to 159 °C

The reported melting point of the compound O=C(O)CCc1cnoc1-c1ccc(C(F)(F)F)cc1 was 171 to 172 °C

O=C(O)CCc1conc1-c1ccc(Cl)c(Cl)c1 yielded melting point of 181 to 182 °C

Consider O=C(O)CCc1cnoc1-c1ccc([N+](=O)[O-])cc1 . Its measured melting point is 204 to 205 °C

The recorded melting point for O=C(O)CCc1cnoc1-c1ccc(F)c(Br)c1 is 136 to 137 °C
